Where do these numbers come from? They come from the supplement of paper PMC9170038.

Test system: MS2 coat protein
Assay name: apparent KD of MS2 coat protein; designed switch direction (-1 OFF switch, 1 ON switch): -1; higher = weaker reporter binding
Measurement conditions: input ligand: FMN 200 uM
# apparent KD of MS2 coat protein per entry
Numbers only; they are read as nM.

Request: Give its apparent KD of MS2 coat protein value. Item: UUAAAUCAUGUAGGAUAUGCGUGGCGAAGCUAUGCAGAAGGACAUGAGGAUCACCCAUGUUCUUGCGUCUGCGUACAGAUGCAA [JL ENG1 1.09] (Eterna round: R96, puzzle: Exclusion NG 1)
Result: 118

Request: Give its apparent KD of MS2 coat protein value. Item: UGCAGACGAGGAUAUAGAUUUGAUAACAUGAGGAUCACCCAUGUGAUCGAUAGAUCAGAUUUAGAAGGCGUCUGCA [E5/8-A2] (Eterna round: R97, puzzle: Exclusion 5)
Result: 628

Request: Give its apparent KD of MS2 coat protein value. Item: CUGAACCCGGUAGGAUAUAUUGUGGGCAAGCAUGGAACGACAUGAGGAUCACCCAUGUAAUUUAGGUAGAAGGGCCAAGAGAUU [Excl-NG2-LRO10] (Eterna round: R96, puzzle: Exclusion NG 2)
Result: 74.2

----------
System: MS2 coat protein
Assay name: apparent KD of MS2 coat protein, switch OFF state (with FMN for OFF switches, without FMN for ON switches); designed switch direction (-1 OFF switch, 1 ON switch): 1; higher = weaker reporter binding
Measurement conditions: FMN input: 0 or 200 uM; Eterna round: R93 (includes R88 designs)
Property measured: apparent KD of MS2 coat protein

Some sequences with recorded apparent KD of MS2 coat protein:
| Seq text | Property measured | Result |
| --- | --- | --- |
| AUAAAACAUGAGGAUCACCCAUGUAGAAACAUGGGAGGAUAUACAAAGACGAAAGUCAAAGUAGAAGGCCUAAAAG [Meechl MS2 SS1 2] | apparent KD of MS2 coat protein | 67.3 nM |
| UGAAGACAUGAGGAUCACCCAUGUGGGAUUAUGGGAGGAUAUACAAAGACGAGAGUCAGAGUAGAAGGCCUAGGAG [salish99-ss1-118(!)] | apparent KD of MS2 coat protein | 67.9 nM |
| GAAAAACAUGAGGAUCACCCAUGUAAAAAUAUGGGAGGAUAUUGAAAGACGAAAGUCAAACAAGAAGGCCUAAAAG [Garnet 2] | apparent KD of MS2 coat protein | 119 nM |
| CGGAGACAUGAGGAUCACCCAUGUGAGAAGAGGCGAGGAUAUGGAAAUAAAGAAGAGAAAUGAGAAGGCGCGAGCC [salish99-SS1-082] | apparent KD of MS2 coat protein | 36.3 nM |

Request: Give its apparent KD of MS2 coat protein value. Item: AAAACACAUGAGGAUCACCCAUGUGCAAAAUUCGCAGGAUAUUCCUCAAUUAAAUGAGAGGAAGAAGGGUGAUAAA [Nob's Hobby 33 - Jieux - Same State 1]
Result: 53.4 nM

Request: Give its apparent KD of MS2 coat protein value. Item: AAAAGACAUGAGGAUCACCCAUGUAAAAACGUGGGAGGAUAUGCAUGGAAAACAUGCUGUGCAGAAGGCCCGUGUC [SS1 - 22]
Result: 200 nM

Request: Give its apparent KD of MS2 coat protein value. Item: AAAAAACAUGAGGAUCACCCAUGUAAAAAAAACACAGGAUAUCCCUUUUUUAAAUGAAAAGGAGAAGGGUGAAAAA [Nob's Hobby 9 - Jieux - Same State 1]
Result: 24 nM

Request: Give its apparent KD of MS2 coat protein value. Item: AUAAAACAUGAGGAUCACCCAUGUAGAAAUAUGGGAGGAUAUACAAAGACGAAAGUCAAAGUAGAAGGCCUAAAAG [Mod of Meechl's design Meechl MS2 SS1 2]
Result: 66.2 nM

Request: Give its apparent KD of MS2 coat protein value. Item: AUAAAAUAAAAGGAGGAUAUCCAUAAUAAAACAUGAGGAUCACCCAUGUAAAAAAGAAGAAAAUGGGAGAAGGCCUAAAAUAAAU [SS2 M 27]
Result: 23.6 nM

Request: Give its apparent KD of MS2 coat protein value. Item: AUAAAACAUGAGGAUCACCCAUGUGAAAAUAUGGGAGGAUAUACGUAGACGAAAGUCGACGUAGAAGGCCUAAAAG [Same State 1.4n.2 (Mat - Mod of Eli - )]
Result: 81.8 nM

Request: Give its apparent KD of MS2 coat protein value. Item: AAUAAACAUGAGGAUCACCCAUGUAAUAAUAUGGGAGGAUAUACUAAAAUAAAAUAAAAUGUAGAAGGCCUAAUAA [LROPPY Same State 1 - v05_deltaG=1.05 break up the As]
Result: 159 nM

Request: Give its apparent KD of MS2 coat protein value. Item: AGAAAUAAAAGACAGGAUAUCCAAACUCAAACAUGAGGAUCACCCAUGUAAAAGAAAAUAAAGUGGGAGAAGGGUCAAAAUAAGA [Jieux modified + C segment V4]
Result: 33.1 nM
